Substrate: NC(=O)OP(=O)(O)O
assay remarks: purified protein
Type: biochemical, Escherichia coli
condition: 50 mM Tris pH 8.5, 20 °C, 20 mM NaCl, ornithine 3 mM
readout name: kcat (s⁻¹)

INSERT INTO results (protein, quantitative_result) VALUES
  ('Escherichia coli ornithine transcarbamoylase (OTC), wild type, His-tagged (enzyme, E. coli, Anabolic ornithine transcarbamoylase of E. coli, argI gene, 333-residue subunit; Expressed from the ASKA plasmid pCA24N; also called WT OTC; anabolic OTC; source: E. coli BL21 (DE3) Tuner, purified (HisTrap FF, Superdex 200 SEC)) SGFYHKHFLKLLDFTPAELNSLLQLAAKLKADKKSGKEEAKLTGKNIALIFEKDSTRTRCSFEVAAYDQGARVTYLGPSGSQIGHKESIKDTARVLGRMYDGIQYRGYGQEIVETLAEYASVPVWNGLTNEFHPTQLLADLLTMQEHLPGKAFNEMTLVYAGDARNNMGNSMLEAAALTGLDLRLVAPQACWPEAALVTECRALAQQNGGNITLTEDVAKGVEGADFIYTDVWVSMGEAKEKWAERIALLREYQVNSKMMQLTGNPEVKFLHCLPAFHDDQTTLGKKMAEEFGLHGGMEVTDEVFESAASIVFDQAENRMHTIKAVMVATLSK', 410),
  ('OTC (E. coli ornithine transcarbamoylase, argI) (Escherichia coli K-12; E300Q) (protein, full length, uncleaved 6xHis tag, pCA24N ASKA clone, expressed in BL21(DE3) Tuner; homotrimer of 333-residue subunits) SGFYHKHFLKLLDFTPAELNSLLQLAAKLKADKKSGKEEAKLTGKNIALIFEKDSTRTRCSFEVAAYDQGARVTYLGPSGSQIGHKESIKDTARVLGRMYDGIQYRGYGQEIVETLAEYASVPVWNGLTNEFHPTQLLADLLTMQEHLPGKAFNEMTLVYAGDARNNMGNSMLEAAALTGLDLRLVAPQACWPEAALVTECRALAQQNGGNITLTEDVAKGVEGADFIYTDVWVSMGEAKEKWAERIALLREYQVNSKMMQLTGNPEVKFLHCLPAFHDDQTTLGKKMAEEFGLHGGMQVTDEVFESAASIVFDQAENRMHTIKAVMVATLSK', 4.6);

Just for reference, paper PMC7004355 is where these values come from.
